# credit: the supplement of paper PMC10567573

B1: SCNN1D (parent)
chain: IRVMVHGRNHTPFLGHHSFSVRPG

Variants of: B1
Experiment: protein stability index of a GFP-peptide fusion (GPS, HEK-293T) (PSI 1-6); higher = more stable;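 note: lentivirally expressed fusions sorted by FACS into six bins by GFP to DsRed ratio, PSI derived from sequencing read proportions per bin multiplied by bin number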
Conditions: c terminus: a fixed tail appended
Quick reference: protein stability index of the listed items.
reportedMetric: protein stability index

[[record]]
variantdescriptor = "L14W"
reportedmetric = "protein stability index"
measurednumber = 2.98

[[record]]
variantdescriptor = "N9E"
reportedmetric = "protein stability index"
measurednumber = 3.01

[[record]]
variantdescriptor = "V21H"
reportedmetric = "protein stability index"
measurednumber = 3.02

[[record]]
variantdescriptor = "R2G"
reportedmetric = "protein stability index"
measurednumber = 2.91

[[record]]
variantdescriptor = "H17K"
reportedmetric = "protein stability index"
measurednumber = 2.99

[[record]]
variantdescriptor = "S20K"
reportedmetric = "protein stability index"
measurednumber = 2.98

